The reported measurements were obtained from PubChem BioAssay AID2060511.

# Tested on: 422866-222-R5-J1-PDC spheroids with HUVEC/MSC, viability
# ASSAY_METHOD_TEXT: Anticancer human tumor 422866-222-R5-J1-PDC patient-derived pancreatic adenocarcinoma cell line growth inhibition [GQUAD]
# CONDITION_SET: curve of first compound; second compound 0.0316 µM
Kindly supply the reported pIC50 values for the records listed here.
Answers are plain numbers, as −log10 of the molar value.

Nc1ccn(C2OC(CO)C(O)C2(F)F)c(=O)n1 (configuration not stated) + Cc1[nH]c2ccc(F)cc2c1-c1nc2c3cccnc3c3ncccc3c2[nH]1 | 6.10
CC[C@@]1(O)C(=O)OCc2c1cc1n(c2=O)Cc2cc3c(CN(C)C)c(O)ccc3nc2-1 + Cc1cnc(CNC(=O)c2c(=O)c3ccc(N4CCCN(C)CC4)nc3n3c2sc2ccccc23)cn1 | 6.72
C#Cc1c(F)ccc2cc(O)cc(-c3ncc4c(N5CC6CCC(C5)N6)nc(OCC56CCCN5CC(F)C6)nc4c3F)c12 (configuration not stated) + Cc1cnc(CNC(=O)c2c(=O)c3ccc(N4CCCN(C)CC4)nc3n3c2sc2ccccc23)cn1 | 5.75
COc1cccc2c1C(=O)c1c(O)c3c(c(O)c1C2=O)CC(O)(C(=O)CO)CC3OC1CC(N)C(O)C(C)O1 (configuration not stated) + Cc1cnc(CNC(=O)c2c(=O)c3ccc(N4CCCN(C)CC4)nc3n3c2sc2ccccc23)cn1 | 6.01
CC(C)(O)C1CCC(Nc2ccc3ncc(-c4cccc(C(F)(F)F)c4)n3n2)CC1 (configuration not stated) + CN(C)c1ccc(Nc2c3ccc(NC(=O)CCN4CCCC4)cc3nc3cc(NC(=O)CCN4CCCC4)ccc23)cc1 | 5.68

We now examine a further molecule.
Task item: Please supply the value of reported pIC50 for the item COc1ccc([C@@H](O)c2cc(-c3ncnc4cc(N5CCOCC5)ccc34)c(F)cc2Cl)nn1 + Cc1cnc(CNC(=O)c2c(=O)c3ccc(N4CCCN(C)CC4)nc3n3c2sc2ccccc23)cn1
Reply: 5.86

###

# Test system: 422866-222-R5-J1-PDC spheroids with HUVEC/MSC, viability
# ASSAY_METHOD_TEXT: Anticancer human tumor 422866-222-R5-J1-PDC cell line growth inhibition [GQUAD];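 further: spheroids exposed to compounds for seven days before reading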;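 on viability, T/C: percent viability relative to DMSO vehicle control taken as 100%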
# CONDITION_SET: second compound 1 µM; first compound 0.00999 µM; stronger effect = lower value
Kindly supply the reported viability, T/C values for the records listed here.
Numbers only, in %.

// solved cases for viability, T/C follow
CCc1c2c(nc3ccc(O)cc13)-c1cc3c(c(=O)n1C2)COC(=O)[C@]3(O)CC + Cc1[nH]c2ccc(F)cc2c1-c1nc2c3cccnc3c3ncccc3c2[nH]1 | 39.9
Cn1ncnc1[C@H]1c2n[nH]c(=O)c3cc(F)cc(c23)N[C@@H]1c1ccc(F)cc1 + Cc1cnc(CNC(=O)c2c(=O)c3ccc(N4CCCN(C)CC4)nc3n3c2sc2ccccc23)cn1 | 80.7
CC[C@@]1(O)C(=O)OCc2c1cc1n(c2=O)Cc2cc3c(CN(C)C)c(O)ccc3nc2-1 + Cc1[nH]c2ccc(F)cc2c1-c1nc2c3cccnc3c3ncccc3c2[nH]1 | 76.2

Take each entry in turn and give its viability, T/C.
1. CCc1c2c(nc3ccc(O)cc13)-c1cc3c(c(=O)n1C2)COC(=O)[C@]3(O)CC + Cc1cnc(CNC(=O)c2c(=O)c3ccc(N4CCCN(C)CC4)nc3n3c2sc2ccccc23)cn1
2. CC[C@@]1(O)C(=O)OCc2c1cc1n(c2=O)Cc2cc3c(CN(C)C)c(O)ccc3nc2-1 + Cc1cnc(CNC(=O)c2c(=O)c3ccc(N4CCCN(C)CC4)nc3n3c2sc2ccccc23)cn1
3. Cc1[nH]c2ccccc2c1CCNCc1ccc(/C=C/C(=O)NO)cc1 + Cc1[nH]c2ccc(F)cc2c1-c1nc2c3cccnc3c3ncccc3c2[nH]1

Reply:
[59.6, 76.5, 114]

###

# System: 422866-222-R5-J1-PDC spheroids with HUVEC/MSC, viability
# ASSAY_METHOD_TEXT: Anticancer human tumor 422866-222-R5-J1-PDC cell line growth inhibition [GQUAD];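 further: spheroids exposed to compounds for seven days before reading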;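 on viability, T/C: percent viability relative to DMSO vehicle control taken as 100%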
# CONDITION_SET: second compound 3.16 µM; first compound 0.1 µM; stronger effect = lower value
Mark y for viability, T/C under 80%, n if at or over.

Completed entries (count: 5):
Cc1cccc(N(C)C(=O)C2C(O)CCN2c2nc(C)cc(C(F)(F)F)c2C#N)c1 (stereo not given) + CN(C)c1ccc(Nc2c3ccc(NC(=O)CCN4CCCC4)cc3nc3cc(NC(=O)CCN4CCCC4)ccc23)cc1 | y
CC1COCCN1c1cc(C2(S(C)(=N)=O)CC2)nc(-c2ccnc3[nH]ccc23)n1 (stereo not given) + CN(C)c1ccc(Nc2c3ccc(NC(=O)CCN4CCCC4)cc3nc3cc(NC(=O)CCN4CCCC4)ccc23)cc1 | y
Cc1cccc(N(C)C(=O)C2C(O)CCN2c2nc(C)cc(C(F)(F)F)c2C#N)c1 (stereo not given) + Cc1[nH]c2ccc(F)cc2c1-c1nc2c3cccnc3c3ncccc3c2[nH]1 | n
C#Cc1c(F)ccc2cc(O)cc(-c3ncc4c(N5CC6CCC(C5)N6)nc(OCC56CCCN5CC(F)C6)nc4c3F)c12 (stereo not given) + Cc1cnc(CNC(=O)c2c(=O)c3ccc(N4CCCN(C)CC4)nc3n3c2sc2ccccc23)cn1 | n
COc1cc(C2c3cc4c(cc3C(OC3OC5COC(C)OC5C(O)C3O)C3COC(=O)C23)OCO4)cc(OC)c1O (stereo not given) + CN(C)c1ccc(Nc2c3ccc(NC(=O)CCN4CCCC4)cc3nc3cc(NC(=O)CCN4CCCC4)ccc23)cc1 | y

Task item: Given the entry CC(=O)O[C@H]1C(=O)[C@@]2(C)[C@H]([C@H](OC(=O)c3ccccc3)[C@]3(O)C[C@H](OC(=O)[C@H](O)[C@@H](NC(=O)c4ccccc4)c4ccccc4)C(C)=C1C3(C)C)[C@]1(OC(C)=O)CO[C@@H]1C[C@@H]2O + CN(C)c1ccc(Nc2c3ccc(NC(=O)CCN4CCCC4)cc3nc3cc(NC(=O)CCN4CCCC4)ccc23)cc1 , would its reported viability, T/C be below 80%?
Reply: y

Task item: Given the entry COc1ccc([C@@H](O)c2cc(-c3ncnc4cc(N5CCOCC5)ccc34)c(F)cc2Cl)nn1 + Cc1[nH]c2ccc(F)cc2c1-c1nc2c3cccnc3c3ncccc3c2[nH]1 , would its reported viability, T/C be below 80%?
Reply: y

Task item: Given the entry O=C(NO)c1cnc(N2CCN(S(=O)(=O)c3ccc4ccccc4c3)CC2)nc1 + Cc1[nH]c2ccc(F)cc2c1-c1nc2c3cccnc3c3ncccc3c2[nH]1 , would its reported viability, T/C be below 80%?
Reply: y

###

# Test system: 422866-222-R5-J1-PDC spheroids with HUVEC/MSC, viability
# ASSAY_METHOD_TEXT: Anticancer human tumor 422866-222-R5-J1-PDC cell line growth inhibition [GQUAD];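 further: spheroids exposed to compounds for seven days before reading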;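 on viability, T/C: percent viability relative to DMSO vehicle control taken as 100%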
# CONDITION_SET: second compound 0.0316 µM; first compound 0.316 µM; stronger effect = lower value
QUANTITY_MEASURED: viability, T/C

CC1COCCN1c1cc(-c2ccnn2C)c2ccnc(-c3ccn[nH]3)c2n1 (stereo unspecified) + CN(C)c1ccc(Nc2c3ccc(NC(=O)CCN4CCCC4)cc3nc3cc(NC(=O)CCN4CCCC4)ccc23)cc1 | 53.2%
COc1ccc([C@@H](O)c2cc(-c3ncnc4cc(N5CCOCC5)ccc34)c(F)cc2Cl)nn1 + CN(C)c1ccc(Nc2c3ccc(NC(=O)CCN4CCCC4)cc3nc3cc(NC(=O)CCN4CCCC4)ccc23)cc1 | 73.9%
O=c1[nH]cc(F)c(=O)[nH]1 + Cc1cnc(CNC(=O)c2c(=O)c3ccc(N4CCCN(C)CC4)nc3n3c2sc2ccccc23)cn1 | 88.2%

Take each entry in turn and give its viability, T/C.
1. CC1COCCN1c1cc(-c2ccnn2C)c2ccnc(-c3ccn[nH]3)c2n1 (stereo unspecified) + Cc1[nH]c2ccc(F)cc2c1-c1nc2c3cccnc3c3ncccc3c2[nH]1
2. C#Cc1c(F)ccc2cc(O)cc(-c3ncc4c(N5CC6CCC(C5)N6)nc(OCC56CCCN5CC(F)C6)nc4c3F)c12 (stereo unspecified) + Cc1[nH]c2ccc(F)cc2c1-c1nc2c3cccnc3c3ncccc3c2[nH]1
3. O=C(c1cc(Cc2n[nH]c(=O)c3ccccc23)ccc1F)N1CCN(C(=O)C2CC2)CC1 + Cc1[nH]c2ccc(F)cc2c1-c1nc2c3cccnc3c3ncccc3c2[nH]1
4. CCCS(=O)(=O)Nc1ccc(F)c(C(=O)c2c[nH]c3ncc(-c4ccc(Cl)cc4)cc23)c1F + Cc1[nH]c2ccc(F)cc2c1-c1nc2c3cccnc3c3ncccc3c2[nH]1
5. Cc1cccc(N(C)C(=O)C2C(O)CCN2c2nc(C)cc(C(F)(F)F)c2C#N)c1 (stereo unspecified) + Cc1cnc(CNC(=O)c2c(=O)c3ccc(N4CCCN(C)CC4)nc3n3c2sc2ccccc23)cn1
6. CC(=O)O[C@H]1C(=O)[C@@]2(C)[C@H]([C@H](OC(=O)c3ccccc3)[C@]3(O)C[C@H](OC(=O)[C@H](O)[C@@H](NC(=O)c4ccccc4)c4ccccc4)C(C)=C1C3(C)C)[C@]1(OC(C)=O)CO[C@@H]1C[C@@H]2O + Cc1cnc(CNC(=O)c2c(=O)c3ccc(N4CCCN(C)CC4)nc3n3c2sc2ccccc23)cn1
7. COc1cc(C2c3cc4c(cc3C(OC3OC5COC(C)OC5C(O)C3O)C3COC(=O)C23)OCO4)cc(OC)c1O (stereo unspecified) + Cc1[nH]c2ccc(F)cc2c1-c1nc2c3cccnc3c3ncccc3c2[nH]1
8. C=CC(=O)N1CCN(c2nc(=O)n(-c3c(C)ccnc3C(C)C)c3nc(-c4c(O)cccc4F)c(F)cc23)C(C)C1 (stereo unspecified) + Cc1[nH]c2ccc(F)cc2c1-c1nc2c3cccnc3c3ncccc3c2[nH]1

Reply:
1: 46.1%; 2: 84.4%; 3: 91%; 4: 61.5%; 5: 83.9%; 6: 80.3%; 7: 86.6%; 8: 25.1%

Take each entry in turn and give its viability, T/C.
1. CC1COCCN1c1cc(C2(O)CC3CCC(C2)O3)c2cnn(-c3ccn[nH]3)c2n1 (stereo unspecified) + CN(C)c1ccc(Nc2c3ccc(NC(=O)CCN4CCCC4)cc3nc3cc(NC(=O)CCN4CCCC4)ccc23)cc1
2. Nc1ccn(C2OC(CO)C(O)C2(F)F)c(=O)n1 (stereo unspecified) + Cc1[nH]c2ccc(F)cc2c1-c1nc2c3cccnc3c3ncccc3c2[nH]1
3. CC1COCCN1c1cc(C2(S(C)(=N)=O)CC2)nc(-c2ccnc3[nH]ccc23)n1 (stereo unspecified) + CN(C)c1ccc(Nc2c3ccc(NC(=O)CCN4CCCC4)cc3nc3cc(NC(=O)CCN4CCCC4)ccc23)cc1
4. Nc1ccn(C2OC(CO)C(O)C2(F)F)c(=O)n1 (stereo unspecified) + CN(C)c1ccc(Nc2c3ccc(NC(=O)CCN4CCCC4)cc3nc3cc(NC(=O)CCN4CCCC4)ccc23)cc1
5. O=c1[nH]cc(F)c(=O)[nH]1 + Cc1[nH]c2ccc(F)cc2c1-c1nc2c3cccnc3c3ncccc3c2[nH]1

Reply:
1: 55.3%; 2: 63.3%; 3: 97.3%; 4: 74.6%; 5: 101%
